target: Pol Theta (1-894) (Homo sapiens (Human), UniProt O75417)
Sequence (O75417 1-894): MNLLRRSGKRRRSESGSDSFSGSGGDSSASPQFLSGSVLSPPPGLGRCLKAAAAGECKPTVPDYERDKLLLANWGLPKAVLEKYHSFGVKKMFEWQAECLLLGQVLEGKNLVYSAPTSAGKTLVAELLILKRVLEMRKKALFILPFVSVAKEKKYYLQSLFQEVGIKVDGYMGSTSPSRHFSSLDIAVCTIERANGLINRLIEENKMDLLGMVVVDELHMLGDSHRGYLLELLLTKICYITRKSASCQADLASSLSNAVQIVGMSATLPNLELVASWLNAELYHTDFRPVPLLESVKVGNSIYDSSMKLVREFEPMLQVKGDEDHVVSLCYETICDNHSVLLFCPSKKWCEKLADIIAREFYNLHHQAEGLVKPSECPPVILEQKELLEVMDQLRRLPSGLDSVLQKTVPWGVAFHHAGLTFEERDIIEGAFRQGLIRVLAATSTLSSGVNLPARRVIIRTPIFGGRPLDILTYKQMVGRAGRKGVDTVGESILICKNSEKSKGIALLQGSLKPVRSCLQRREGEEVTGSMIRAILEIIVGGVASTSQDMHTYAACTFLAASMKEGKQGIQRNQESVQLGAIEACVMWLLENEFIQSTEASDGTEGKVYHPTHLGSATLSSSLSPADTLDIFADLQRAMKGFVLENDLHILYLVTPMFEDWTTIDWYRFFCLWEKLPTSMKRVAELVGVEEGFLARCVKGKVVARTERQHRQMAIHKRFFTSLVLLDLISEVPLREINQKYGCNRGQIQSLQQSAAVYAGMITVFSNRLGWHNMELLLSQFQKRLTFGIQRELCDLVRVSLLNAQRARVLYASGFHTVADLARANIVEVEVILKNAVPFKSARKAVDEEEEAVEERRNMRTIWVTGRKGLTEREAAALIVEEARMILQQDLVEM
Label key: true (1) means IC50 under 20 nM; false (0) means IC50 of 20 nM or more.

Solved cases (3 shown):
{"COMPOUND": "COc1ccc(C#N)cc1-c1cc(C)ncc1C(=O)Nc1nc2ccc(-c3ccc(CC#N)cn3)nc2s1 [Example 168]", "ASSIGNED_LABEL": "true (1)"}
{"COMPOUND": "COc1ccccc1-c1cnncc1C(=O)Nc1nc2ccc(-c3ccc(C(=O)N4CCOCC4)cc3)nc2s1 [Example 103]", "ASSIGNED_LABEL": "false (0)"}
{"COMPOUND": "COc1ccccc1-c1cnncc1C(=O)Nc1nc2ccc(-c3ccc(C(=O)NC(C)C)cc3)nc2s1 [Example 102]", "ASSIGNED_LABEL": "false (0)"}

[ask] Bench note: check whether Cc1cc(-c2ccccc2CO)c(C(=O)Nc2nc3ccc(-c4ccc(C#N)cc4)nc3s2)cn1 [Example 64] shows IC50 below 20 nM
[reply] false (0)

[ask] Please answer likewise for COc1ccc(C#N)cc1-c1cc(C)ncc1C(=O)Nc1nc2ccc(-c3ccc(NC(=O)C(C)C)cc3)nc2s1 [Example 50]
[reply] false (0)

[ask] Field entry: COc1ccccc1-c1cnncc1C(=O)Nc1nc2ccc(-c3ccc(C#N)cn3)nc2s1 [Example 158]
[reply] true (1)

[ask] Can you handle COc1ccc(C#N)cc1-c1cc(C)ncc1C(=O)Nc1nc2ccc(-c3ccc([C@@H](C)C#N)cc3)nc2s1 [Example 177A] next?
[reply] false (0)

---

Recorded IC50 values (Pol Theta (1-894) (Homo sapiens (Human))) are given below.
One number for each entry, in nM.

{"COMPOUND": "COc1ccc(C#N)cc1-c1cc(C)ncc1C(=O)Nc1nc2ccc(-c3ccc(CC#N)cc3)nc2s1", "SYSTEM_TESTED": "Pol Theta (1-894) (Homo sapiens (Human))", "IC50 (nM)": 5.6}
{"COMPOUND": "CCOc1ccc(C#N)cc1-c1cc(C)ncc1C(=O)Nc1nc2ccc(-c3ccc(C#N)cc3)nc2s1", "SYSTEM_TESTED": "Pol Theta (1-894) (Homo sapiens (Human))", "IC50 (nM)": 16}
{"COMPOUND": "COc1ccccc1-c1cnncc1C(=O)Nc1nc2ccc(-c3ccc(Cl)cc3F)nc2s1", "SYSTEM_TESTED": "Pol Theta (1-894) (Homo sapiens (Human))", "IC50 (nM)": 29}
{"COMPOUND": "COc1ccc(C#N)cc1-c1cc(C)ncc1C(=O)Nc1nc2ccc(-c3ccc(N4CCCC4=O)c(C)c3)nc2s1", "SYSTEM_TESTED": "Pol Theta (1-894) (Homo sapiens (Human))", "IC50 (nM)": 7.5}
{"COMPOUND": "COc1ccc(C#N)cc1-c1cc(C)ncc1C(=O)Nc1nc2ccc(-c3ccc(C#N)cc3)nc2s1", "SYSTEM_TESTED": "Pol Theta (1-894) (Homo sapiens (Human))", "IC50 (nM)": 8.5}

Provide the reported IC50 of each entry below, same order.
1. COc1ccc(C#N)cc1-c1cc(C)ncc1C(=O)Nc1nc2ccc(-c3ccc([C@H](C)C#N)cc3)nc2s1 [Example 177B]
2. COc1ccccc1-c1cnncc1C(=O)Nc1nc2ccc(-c3ccc(Cl)cc3Cl)nc2s1
3. COc1ccc(C#N)cc1-c1cc(C)ncc1C(=O)Nc1nc2ccc(-c3ccc(C(F)(F)F)cc3)nc2s1

[reply]
13
12
87

// each listed compound needs a value for IC50
1. COc1ccccc1-c1cnncc1C(=O)Nc1nc2ccc(-c3ccc(S(C)(=O)=O)cc3)nc2s1
2. N#Cc1ccc(C(=O)Nc2nc3ccc(-c4ccc(Cl)cc4)nc3s2)c(N2CCNC(=O)C2)n1
3. COc1ccccc1-c1cnncc1C(=O)Nc1nc2ccc(-c3ccc(Cl)cn3)nc2s1
4. Cc1cc(-c2ccc(=O)n(C)c2)c(C(=O)Nc2nc3ccc(-c4ccc(C#N)cc4)nc3s2)cn1
5. COc1ccccc1-c1cnncc1C(=O)Nc1nc2ccc(-c3ccc(C#N)nc3)nc2s1

[reply]
1: 7.7; 2: 147; 3: 5; 4: 64; 5: 11

# map each compound to its IC50
1. COc1ccc(C2CC2)cc1-c1cc(C)ncc1C(=O)Nc1nc2ccc(-c3ccc(C#N)cc3)nc2s1
2. COc1ccc(OC)c(-c2cc(C)ncc2C(=O)Nc2nc3ccc(-c4ccc(C#N)cc4)nc3s2)c1

[reply]
[58, 150]

These entries and their values trace back to patent US20250026766A1.
